From: PubChem BioAssay AID624296

- Experiment notes: A quantitative high throughput screen for small molecules that induce DNA re-replication in MCF 10a normal breast cells. Further: nearly all actives have a fitted effect of over 50% in size.
- Experimental conditions: MCF 10A DNA re-replication, Hoechst nuclear intensity, 48 h; series mostly up to 46.1 µM
The whole screen tested about 350,000 compounds, of which about 9,900 (2.8%) were called active. Inconclusive results (about 15%) are left out. The call rests on the fitted dose curve; in most records, active means well fitted activation curve with a large enough effect; inconclusive means small, poorly fitted or top-dose-only effect; inactive means no such curve, though single readings can be large or run the other way. The list comes from a sample in which actives are over-represented; it also holds close analogues and randomly drawn compounds.
Thanks in advance; please answer with one of these: active, inactive

Prompt: How was "Cc1cc(C)nc(N/N=C/c2ccc([N+](=O)[O-])o2)n1" classified in this test?
Completion: inactive

Prompt: How was "CC(C)(C)OC(=O)N/N=C/c1cn(-c2ccccc2)nc1-c1cccnc1" classified in this test?
Completion: inactive

Prompt: How was "CCc1nnc(NC(=O)c2sc3nc(C)cc(COC)c3c2N)s1" classified in this test?
Completion: inactive

Prompt: How was CCOC(=O)C(NC(=O)CC(C)C)(Nc1sc2c(c1C(N)=O)CCCC2)C(F)(F)F (stereo not drawn) classified in this test?
Completion: inactive

Prompt: How was "Cc1c(CC(=O)NCCCCCC(=O)O)c(=O)oc2cc3occ(-c4ccccc4)c3cc12" classified in this test?
Completion: inactive

Prompt: How was "CC1CCN(c2ccc(C(=O)NCc3ccc4c(c3)OCO4)cc2[N+](=O)[O-])CC1" classified in this test?
Completion: inactive

Prompt: How was OC(c1nc2ccccc2[nH]1)C(O)C(O)C(O)c1nc2ccccc2[nH]1 (stereo not drawn) classified in this test?
Completion: inactive

Prompt: How was "COc1ccc(-c2nn(-c3ccccc3)cc2/C=N/Nc2ccccn2)cc1OC" classified in this test?
Completion: active

Prompt: How was COc1ccc(C(C[N+](=O)[O-])n2nc(C)cc2C)cc1 (stereo not drawn) classified in this test?
Completion: active

Prompt: How was "COc1cccc(OC)c1C(=O)Nc1sc2c(c1C(N)=O)CCCC2" classified in this test?
Completion: inactive

Prompt: How was "COc1ccc(OCc2cn3c(C)cc(C)nc3n2)cc1" classified in this test?
Completion: inactive

Prompt: How was "COc1ccccc1S(=O)(=O)NCc1ccc(C(=O)N(C)Cc2ccc(F)cc2)cc1" classified in this test?
Completion: inactive

Prompt: How was CC(=O)c1sc(NC(=O)CCN2C(=O)C3CC=CCC3C2=O)nc1-c1ccccc1 (stereo not drawn) classified in this test?
Completion: inactive

Prompt: How was "CCCCCOc1ccc(/C=C/C(=O)NCCc2nc3ccccc3[nH]2)cc1OC" classified in this test?
Completion: active

Prompt: How was COc1cc(C2C(C(=O)c3ccc(C)o3)=C(O)C(=O)N2CCc2ccccc2)ccc1O (stereo not drawn) classified in this test?
Completion: inactive

Prompt: How was "CSc1ncc(Sc2ccccc2)c(C(=O)O)n1" classified in this test?
Completion: inactive

Prompt: How was "CCOC(=O)c1sc(=NC(=O)c2ccc(Br)cc2)n(C)c1C" classified in this test?
Completion: inactive

Prompt: How was "O=C(COc1ccccc1)NCCc1nc2ccccc2[nH]1" classified in this test?
Completion: inactive

Prompt: How was "O=C(NCCc1ccccc1)c1c[nH]c2ccc(F)cc2c1=O" classified in this test?
Completion: inactive

Prompt: How was "O=C(NC1CCCCC1)c1cc([N+](=O)[O-])ccc1N1CCOCC1" classified in this test?
Completion: inactive

Prompt: How was CC(NC(=O)c1ccccc1)C(=O)OCC(=O)Nc1cccc(S(=O)(=O)N2CCCC2)c1 (stereo not drawn) classified in this test?
Completion: inactive

Prompt: How was CCOC(=O)C1=C(C)Nc2sc(C(=O)c3ccc(Br)cc3)c(N)c2C1c1ccc(C(=O)OC)cc1 (stereo not drawn) classified in this test?
Completion: active

Prompt: How was "CC(=O)Oc1ccc(OC(C)=O)c2c1C1C=CC2CC1" classified in this test?
Completion: active

Prompt: How was "O=C(CN1CCCC1)Nc1sc2c(c1C(=O)Nc1ccccc1)CCCC2" classified in this test?
Completion: inactive

Prompt: How was CSc1nc(C)cc(SC(C(C)=O)C(=O)Nc2ccccc2)n1 (stereo not drawn) classified in this test?
Completion: inactive

Prompt: How was "CC(C)c1nc2ccc(C(=O)O)cc2[nH]1" classified in this test?
Completion: active

Prompt: How was CC(=O)Oc1ccccc1C1=NN(C(C)=O)C(c2ccccc2)C1 (stereo not drawn) classified in this test?
Completion: inactive

Prompt: How was O=C(N[C@H]1C/C=C\C(c2cccc(F)c2)N(Cc2ccccc2)C(=O)C1)OCC1c2ccccc2-c2ccccc21 (stereo partly drawn) classified in this test?
Completion: inactive

Prompt: How was O=C1C(=O)N(c2ccccc2)C(c2ccccc2)C1c1ccccc1 (stereo not drawn) classified in this test?
Completion: inactive

Prompt: How was "O=[N+]([O-])c1cc2ccccc2nc1-c1ccccc1" classified in this test?
Completion: inactive

Prompt: How was "COc1ccc(Cl)cc1NC(=O)COC(=O)c1ccc(Br)o1" classified in this test?
Completion: inactive

Prompt: How was "CN(C)/N=C/c1cn(-c2ccccc2)nc1-c1cccnc1" classified in this test?
Completion: inactive

Prompt: How was Cc1cc(N2C(=O)C(O)=C(C(=O)c3ccc(C)o3)C2c2ccc(OCc3ccccc3)cc2)no1 (stereo not drawn) classified in this test?
Completion: active

Prompt: How was "CCOC(=O)c1sc(=S)n2c1[nH]c(=O)c1ccc(C(=O)OC)cc12" classified in this test?
Completion: inactive

Prompt: How was O=C(Nc1cc(S(=O)(=O)N2CCCCC2)ccc1Cl)C1COc2ccccc2O1 (stereo not drawn) classified in this test?
Completion: inactive

Prompt: How was "CCCCCCc1cc2cc(-c3nnc(-c4ccccc4)o3)c(=O)oc2cc1O" classified in this test?
Completion: active

Prompt: How was "COc1ccc(OC)c(NC(=O)c2sc3nc(C)cc(C)c3c2N)c1" classified in this test?
Completion: active

Prompt: How was "CSc1nc(-c2ccccc2)nc(C(Cl)Cl)n1" classified in this test?
Completion: active

Prompt: How was "Cc1cc(C(=O)COc2ccc(Br)cc2F)c(C)n1C1CC1" classified in this test?
Completion: inactive

Prompt: How was "Cc1sc2ncnc(N3CCC(C(=O)Nc4ccc(F)cc4Cl)CC3)c2c1C" classified in this test?
Completion: inactive

Prompt: How was CCN(CC)c1ccc(NC(=O)CN2C(=O)NC3(CCc4ccccc43)C2=O)cc1 (stereo not drawn) classified in this test?
Completion: inactive

Prompt: How was "O=C(N/N=C/c1ccc([N+](=O)[O-])o1)c1cccc(S(=O)(=O)N2CCOCC2)c1" classified in this test?
Completion: inactive

Prompt: How was "NC(=O)C(=O)N/N=C/c1ccc([N+](=O)[O-])o1" classified in this test?
Completion: active
